- TEST_TARGET: human Orexin type 2 receptors (Homo sapiens (Human))
- Sequence (O43614 whole entry): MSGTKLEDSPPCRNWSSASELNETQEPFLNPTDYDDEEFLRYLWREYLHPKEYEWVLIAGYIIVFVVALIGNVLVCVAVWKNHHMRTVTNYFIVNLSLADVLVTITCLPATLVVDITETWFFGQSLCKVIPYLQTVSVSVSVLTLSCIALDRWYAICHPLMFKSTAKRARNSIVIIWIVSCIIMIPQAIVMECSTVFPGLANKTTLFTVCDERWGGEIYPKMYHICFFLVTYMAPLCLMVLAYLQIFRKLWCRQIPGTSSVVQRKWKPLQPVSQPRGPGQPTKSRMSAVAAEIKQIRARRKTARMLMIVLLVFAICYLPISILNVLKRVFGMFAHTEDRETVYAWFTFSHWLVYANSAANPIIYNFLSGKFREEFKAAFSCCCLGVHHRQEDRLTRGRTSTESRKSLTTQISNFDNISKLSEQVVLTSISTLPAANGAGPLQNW
- PROCEDURE_SUMMARY: Scintillation Proximity Assay (SPA) binding assay, [3H]EMPA displacement, HEK-hOX2 membranes
- CONDITION_PARAMETERS: Table 1, [3H]EMPA 2 nM
VALUE_TYPE: OX2 pKi (SPA binding)

[[record]]
molecule = "Cc1ccc(-n2nccn2)c(C(=O)N2C3CC(C3)[C@@H](C)C2COc2ccc(F)cc2)c1 (stereo partly shown)"
reported_value = 6.51

[[record]]
molecule = "Cc1nc(C(=O)N2C(COc3ncc4ccn(C)c4n3)CC3CC2C3)c(-c2ccccc2)s1 (stereo not shown)"
reported_value = 6.86

[[record]]
molecule = "Cc1ccc(-c2nccs2)c(C(=O)N2C3CC(C3)[C@@H](C)C2COc2ccc(F)cc2)n1 (mixture of isomers)"
reported_value = 6.88

[[record]]
molecule = "Cc1nc(C(=O)N2C(CNc3ccc4ccccc4n3)CC3CC2C3)c(-c2ccccc2)s1 (stereo not shown)"
reported_value = 7.39

